Listed compounds paired with reported pIC50
- Tested on: human recombinant HDAC6 (Homo sapiens)
- Assay text: In vitro HDAC enzyme activity inhibition assay, HDAC6 (HDAC Fluorimetric Drug Discovery Kit)
- Test parameters: human recombinant HDAC6, same protocol as the HDAC1 test
Note: pIC50 values are expressed as the negative base-10 logarithm of concentration in M.

| Structure as smiles | pIC50 |
| --- | --- |
| O=C(C1CCC1)N1CC(C(=O)N(Cc2cn3ccc(-c4nnc(C(F)F)o4)cc3n2)c2ccccc2)C1 | 6.46 |
| O=C(C1CCC1)N1CCC(C(=O)N(Cc2cn3ccc(-c4nnc(C(F)F)o4)cc3n2)c2ccccc2)CC1 | 6.48 |
| O=C(C1CCN(c2ccccn2)CC1)N(Cc1cn2ccc(-c3nnc(C(F)F)o3)cc2n1)c1cccc(F)c1 | 6.86 |
| FC(F)c1nnc(-c2ccn3cc(CNc4ccc(C(F)(F)F)cc4)nc3c2)o1 | 6.40 |

Prompt line: Can you share its pIC50? I mean this compound: Fc1cccc(OCc2cn3ccc(-c4nnc(C(F)F)o4)cc3n2)c1
Response line: 6.54

Prompt line: Can you share its pIC50? I mean this compound: FC(F)c1nnc(-c2ccn3cc(CNC45CC6CC(CC(C6)C4)C5)nc3c2)o1
Response line: 6.59

Prompt line: Can you share its pIC50? I mean this compound: CCC(=O)N1CC(C(=O)N(Cc2cn3ccc(-c4nnc(C(F)F)o4)cc3n2)c2ccccc2)C1
Response line: 6.40

Prompt line: Can you share its pIC50? I mean this compound: O=C(C1COC1)N1CCN(C(=O)N(Cc2cn3ccc(-c4nnc(C(F)F)o4)cc3n2)c2ccccc2)CC1
Response line: 6.52

Prompt line: Can you share its pIC50? I mean this compound: O=C(C1CCN(C2COC2)CC1)N(Cc1cn2ccc(-c3nnc(C(F)F)o3)cc2n1)c1ccccc1
Response line: 7.14

###

Listed molecules paired with reported HDAC6 Selectivity (fold)
- Tested on: human recombinant HDAC6 (Homo sapiens)
- Construct: purchased Calbiochem Inc. 382180
- Assay text: In vitro HDAC enzyme activity inhibition assay, HDAC6 (HDAC Fluorimetric Drug Discovery Kit)
- Format: biochemical
- Test parameters: HDAC6 versus HDAC1
I only need the number, in fold, no unit after it.

Reference set, count: 3
| Molecule | HDAC6 Selectivity (fold) |
| --- | --- |
| O=C(CO)N1CC(C(=O)N(Cc2cn3ccc(-c4nnc(C(F)F)o4)cc3n2)c2ccccc2)C1 [Compound 4169] | 61 |
| O=C(C1CCN(C2COC2)CC1)N(Cc1cn2ccc(-c3nnc(C(F)F)o3)cc2n1)c1cccc(F)c1 [Compound 4142] | 234 |
| CCC(=O)N1CCC(C(=O)N(Cc2cn3ccc(-c4nnc(C(F)F)o4)cc3n2)c2cccc(F)c2)CC1 [Compound 4147] | 126 |

Lab note: next molecule to report on.
Prompt line: Can you share its HDAC6 Selectivity (fold)? I mean this molecule: CS(=O)(=O)N1CCC(C(=O)N(Cc2cn3ccc(-c4nnc(C(F)F)o4)cc3n2)c2ccccc2)CC1 [Compound 4128]
Response line: 159

###

- Tested on: human recombinant HDAC6 (Homo sapiens, UniProt Q9UBN7)
- Sequence (Q9UBN7 whole entry): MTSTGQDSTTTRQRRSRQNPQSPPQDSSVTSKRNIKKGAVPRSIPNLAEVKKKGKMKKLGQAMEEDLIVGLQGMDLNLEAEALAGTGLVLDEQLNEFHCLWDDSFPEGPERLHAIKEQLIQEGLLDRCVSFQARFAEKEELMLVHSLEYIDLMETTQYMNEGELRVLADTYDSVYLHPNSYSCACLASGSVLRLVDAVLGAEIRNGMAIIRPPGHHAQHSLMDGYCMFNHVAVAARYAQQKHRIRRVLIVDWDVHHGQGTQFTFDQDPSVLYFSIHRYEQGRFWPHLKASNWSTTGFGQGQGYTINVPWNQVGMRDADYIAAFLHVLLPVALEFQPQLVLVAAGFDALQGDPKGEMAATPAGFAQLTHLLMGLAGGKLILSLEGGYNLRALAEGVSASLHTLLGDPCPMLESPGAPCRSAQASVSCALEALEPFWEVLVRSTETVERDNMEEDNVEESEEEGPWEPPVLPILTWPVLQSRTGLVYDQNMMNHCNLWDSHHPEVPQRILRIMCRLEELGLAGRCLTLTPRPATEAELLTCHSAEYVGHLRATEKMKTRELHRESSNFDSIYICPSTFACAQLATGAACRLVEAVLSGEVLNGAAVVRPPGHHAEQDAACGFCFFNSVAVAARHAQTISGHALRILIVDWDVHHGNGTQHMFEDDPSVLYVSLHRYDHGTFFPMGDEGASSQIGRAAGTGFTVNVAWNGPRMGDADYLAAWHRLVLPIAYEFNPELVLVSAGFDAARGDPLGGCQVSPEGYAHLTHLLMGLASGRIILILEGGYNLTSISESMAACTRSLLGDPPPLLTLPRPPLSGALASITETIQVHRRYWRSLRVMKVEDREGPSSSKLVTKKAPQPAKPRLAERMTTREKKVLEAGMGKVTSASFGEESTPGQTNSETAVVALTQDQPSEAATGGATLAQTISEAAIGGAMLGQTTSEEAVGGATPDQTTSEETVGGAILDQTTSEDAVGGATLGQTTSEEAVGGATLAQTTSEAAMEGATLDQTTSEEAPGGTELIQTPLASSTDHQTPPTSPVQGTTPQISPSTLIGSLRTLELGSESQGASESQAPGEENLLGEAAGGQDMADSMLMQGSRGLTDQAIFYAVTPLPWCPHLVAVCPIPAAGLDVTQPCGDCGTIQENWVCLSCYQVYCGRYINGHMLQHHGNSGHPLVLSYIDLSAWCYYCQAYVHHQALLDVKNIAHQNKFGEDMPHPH
- Assay text: In vitro HDAC enzyme activity inhibition assay, HDAC6 (HDAC Fluorimetric Drug Discovery Kit)
- Test parameters: human recombinant HDAC6, same protocol as the HDAC1 test
- Procedure: In order to confirm the selectivity of the compounds represented by Chemical Formula I of the present invention to HDAC6 through HDAC1 and HDAC6 enzyme activity inhibition experiments, a comparison experiment was performed using the material that has already been developed as a control group. HDAC enzyme activity was measured using the HDAC Fluorimetric Drug Discovery Kit (Enzo Life Sciences, Inc., BML-AK511, 516). […]
Assay readout: pIC50
Note: pIC50 values are expressed as the negative base-10 logarithm of concentration in M.

Reference set, count: 2
| Structure as smiles | Experimental result |
| --- | --- |
| O=C(C1CCN(C2CC3(COC3)C2)CC1)N(Cc1cn2ccc(-c3nnc(C(F)F)o3)cc2n1)c1cccc(F)c1 | 6.71 |
| CCN1CCC(C(=O)N(Cc2cn3ccc(-c4nnc(C(F)F)o4)cc3n2)c2cccc(F)c2)CC1 | 6.77 |

Prompt line: Can you share its pIC50? I mean this molecule: O=C(C1CN(C2CCCCC2)C1)N(Cc1cn2ccc(-c3nnc(C(F)F)o3)cc2n1)c1cccc(F)c1
Response line: 6.88

Prompt line: Can you share its pIC50? I mean this molecule: CCC(=O)N1CCC(C(=O)N(Cc2cn3ccc(-c4nnc(C(F)F)o4)cc3n2)c2ccccc2)CC1
Response line: 6.51

Prompt line: Can you share its pIC50? I mean this molecule: O=C(C1CN(c2ncccn2)C1)N(Cc1cn2ccc(-c3nnc(C(F)F)o3)cc2n1)c1ccccc1
Response line: 6.61

Prompt line: Can you share its pIC50? I mean this molecule: CC(=O)c1ccc(Cc2cn3ccc(-c4nnc(C(F)F)o4)cc3n2)cc1
Response line: 6.34

Prompt line: Can you share its pIC50? I mean this molecule: O=C(C1CCN(C2CCC2)CC1)N(Cc1cn2ccc(-c3nnc(C(F)F)o3)cc2n1)c1cccc(F)c1
Response line: 6.61
